system: HKU5 HR2 peptide (HKU5), A3EXD0
Sequence (A3EXD0 1228-1249 limits assumed): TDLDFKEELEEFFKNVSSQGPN
protocol: peptide ELISA
# reported EC50; entries follow
endpoint name: EC50 (µg/mL)

>>> recorded_result("hr2.013 (antibody, V domains shown) VH: QVQLVQSGAEVKKPGASVKISCKASGYTFTNNYMNWVRQAPGQGLEWMGIIKPSSGSTIYAHKFQGRVTMTRDTSTSTVYMEVRSLTSEDTAVYYCARDQDHGLQNWGQGTLVTVSS VL: QSVLTQPPSVSAASGQKVTIYCSGSSSNIASNFVSWYQQFPGTAPKLLIYDNNQRPSGIPDRFSGSRSGTSATLGITGLQTGDEADYYCGTWDTSLGAWVFGGGTKLTVL")
0.0292
>>> recorded_result("hr2.023 (antibody, V domains shown) VH: QVQLVQSGAEVKKPGASVKVSCRASENIFSDSYLHWVRQAPGQGLEWMGIITPSGDKTFYAQQFQGRLTMTRDTPTNTLHMDLRGLTSADTAIYYCARQATKGGWDYWGQGTLVTVSS VL: EIVLTQSPGTLSLSPGESATLSCRASQSVTRNYLAWYQQQPGQAPRLLIYGASNRATGVPDRFSGSGSGTDFTLTISRLEPEDFAVYYCQQYGSSPPTFIFGPGTKVDIK")
0.0422

Numbers sourced from patent US20250382354A1.
